Assay: NCI Yeast Anticancer Drug Screen. Data for the mlh1 rad18 strain (AID 175)
Details: S. cerevisiae mlh1 rad18 strain growth inhibition; at 50.0 µM; hits give high values
This is part of a sample that, as a whole, favours compounds with a hit. Of some 79,000 tested, about 15% had one in any assay.
Listed molecules paired with reported growth inhibition
QUANTITY_KIND: growth inhibition (%)

MOLECULE	QUANTITY_KIND	UNIT_DESCRIPTOR	VALUE_MEASURED
CC(=O)NC1C(OCc2ccccc2)OC(COC(=O)CCCCCCCCCCNc2ccc([N+](=O)[O-])c3[nH]c4ccccc4c(=O)c23)C(O)C1OC(C)C(=O)NC(C)C(=O)NC(CCC(N)=O)C(=O)OCc1ccccc1 (stereo unspecified)	growth inhibition	%	12.9
C/C(=N/NC(=O)CC#N)c1ccccc1	growth inhibition	%	0.4
Cc1cc(NS(=O)(=O)c2ccc(Nc3c4ccccc4nc4c(C(=O)NCCN(C)C)cccc34)cc2)no1	growth inhibition	%	-14.6
CC(=O)NCS(=O)(=O)O	growth inhibition	%	-9.55
O=S(=O)(O/C(=C(\OS(=O)(=O)C(F)(F)F)c1ccccc1)c1ccccc1)C(F)(F)F	growth inhibition	%	10
CC[n+]1cc([N+](=O)[O-])ccc1Cl	growth inhibition	%	20.2
Cc1ccc2c(c1)c(C)c(C)c(=O)n2C	growth inhibition	%	10.1
CCCCCCCCCCCCCCCC(C)O (stereo unspecified)	growth inhibition	%	-34.8
O=C1NC2OC(CO)C(O)C(O1)C2O (stereo unspecified)	growth inhibition	%	-25
Oc1ccc2ccccc2c1CNC1CCCCC1	growth inhibition	%	-26.6
C/C(=C\C(=O)c1ccccc1)c1ccccc1	growth inhibition	%	57
